Cited source: patent US20260193293A1

Target: Sushi domains (SD1/2) protein of the GABAB1a (GB1a) subunit, recombinant
Sequence (Q9Z0U4 29-158): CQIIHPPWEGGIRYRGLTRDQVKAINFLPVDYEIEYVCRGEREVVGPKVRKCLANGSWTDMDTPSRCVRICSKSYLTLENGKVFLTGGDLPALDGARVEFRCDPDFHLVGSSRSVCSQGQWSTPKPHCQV
Assay: FP competition
Non-standard residues stand in square brackets, D forms with d. NMeW = CN[C@@H](Cc1c[nH]c2ccccc12)C(=O)O
REPORTED_METRIC: Ki (nM)
Give the number; nM is assumed, so skip it.

# input Quick one: Ki of Ac-PWAIV[NMeW]GPTVSRED-NH2 (SMILES CC[C@H](C)[C@H](NC(=O)[C@H](C)NC(=O)[C@H](Cc1c[nH]c2ccccc12)NC(=O)[C@@H]1CCCN1C(C)=O)C(=O)N[C@H](C(=O)N(C)[C@@H](Cc1c[nH]c2ccccc12)C(=O)NCC(=O)N1CCC[C@H]1C(=O)N[C@H](C(=O)N[C@H](C(=O)N[C@@H](CO)C(=O)N[C@@H](CCCNC(=N)N)C(=O)N[C@@H](CCC(=O)O)C(=O)N[C@@H](CC(=O)O)C(N)=O)C(C)C)[C@@H](C)O)C(C)C) [PWAIV(N-Me-W)GPTVSRED] ?
# output 636
